From: patent US20200155602A1

- Study target: T1, HLA-A*02:01 (human)
- T1 construct: Peptide-receptive HLA-A*02:01 monomer obtained by UV cleavage of a UV-sensitive ligand; captured on streptavidin plates; also called peptide-receptive MHC molecules; MHC class I
- Experimental details: UV-ligand exchange, anti-b2m ELISA; grade of peptide exchange yield (>10% = +; >20% = ++; >50 = +++; >75% = ++++)
- Source text: Candidate peptides for T cell based therapies according to the present invention were further tested for their MHC binding capacity (affinity). The individual peptide-MHC complexes were produced by UV-ligand exchange, where a UV-sensitive peptide is cleaved upon UV-irradiation, and exchanged with the peptide of interest as analyzed. Only peptide candidates that can effectively bind and stabilize the peptide-receptive MHC molecules prevent dissociation of the MHC complexes. […]
Reported endpoint: peptide exchange yield

Please review the entries below; each comes with its answer.
STASAITPSV: 20 to 50%
SLQERQVFL: 50 to 75%

So, `TLTDEINFL` ? Its peptide exchange yield was > 75%

So, `YLQNEVFGL` ? Its peptide exchange yield was 50 to 75%

So, `AVDPVSGSLYV` ? Its peptide exchange yield was > 75%

So, `MLFENMGAYTV` ? Its peptide exchange yield was > 75%

So, `GLAGGFGGPGFPV` ? Its peptide exchange yield was > 75%

So, `GLIEWLENTV` ? Its peptide exchange yield was > 75%
